molecular target: Brd4 bromodomain 1 (Homo sapiens); construct: made in house; host or cells: E. coli BL21(DE3); experiment: Inhibition of binding of tetra-acetylated histone H4 and Brd4 bromodomain 1 by TR-FRET; details: His-tagged bromodomain 200 nM, biotinylated tetra-acetylated histone H4 peptide 25-50 nM, 2 hours at room temperature
readout-type: FRET activity (<50 uM)

// solved cases for FRET activity (<50 uM) follow
Cc1cc(-c2nc3ccc(Br)cc3c(=O)[nH]2)cc(C)c1OCCO = Inactive
COc1cc(OC)c2c(=O)[nH]c(-c3cc(C)c(OCCNC(C)=O)c(C)c3)nc2c1 = Active
CNC(=O)NCCOc1c(C)cc(-c2nc3cc(OC)cc(OC)c3c(=O)[nH]2)cc1C = Active
Cc1cc(-c2cc3nc(OC(C)C)cc(OC(C)C)c3c(=O)[nH]2)cc(C)c1O = Active
COc1cc(OC)c2c(=O)[nH]c(-c3cc(C)c(OCCN4CCN(C)CC4)c(C)c3)cc2c1 = Active
COc1cc(OC)c2c(=O)[nH]c(-c3ccc(O)c(C)c3)nc2c1 = Active
COc1cc(OC)c2c(=O)[nH]c(-c3cc(C)c(OCCNC(=O)N(C)C)c(C)c3)nc2c1 = Active
COc1cc(OC)c2c(=O)[nH]c(-c3cc(C)c(/N=C/N(C)C)c(C)c3)nc2c1 = Active
CNC(=O)OCCOc1c(C)cc(-c2nc3cc(OC)cc(OC)c3c(=O)[nH]2)cc1C = Active
Cc1cc(-c2nc3ccc(Br)cc3c(=O)[nH]2)cc(C)c1O = Inactive

The measured FRET activity (<50 uM) associated with COc1cc(OC)c2c(=O)[nH]c(-c3cc(C)c(OCC(=O)O)c(C)c3)nc2c1 reads Active

Notebook: CCN1CCN(Cc2ccc(-c3nc4cc(OC)cc(OC)c4c(=O)[nH]3)cc2)CC1 , FRET activity (<50 uM) read as Active

COc1cc(OC)c2c(=O)[nH]c(-c3ccc(OCC(N)=O)cc3)nc2c1 has a reported FRET activity (<50 uM) of Active
